- System: SW-620 colon
- Assay name: NCI tumour cell line growth inhibition, 48 h
Quantity measured: TGI

Recorded results for 6 compounds are shown here.
CCC(C)C1=C(O)[N+]2([O-])Oc3ccc(-c4c(O)c(O)c(-c5ccc(OC(C)=O)cc5)c(OC(C)=O)c4OC(C)=O)cc3OC2(C(C)CC)C(=O)N1O (stereo not drawn)	> 50 µM
CCC1(CN(C)C)CC/C(=C\c2ccc(OC)c(OC)c2)C1=O (stereo not drawn)	> 100 µM
CC1=Nc2c([nH]c(=S)[nH]c2=O)NC(c2c(Cl)cccc2Cl)C1 (stereo not drawn)	2.05 µM
CC(=O)c1ccc(NC(=O)COC(=O)c2cccc3c(=O)c4ccccc4[nH]c23)cc1	> 100 µM
CC1OC2OC3C(OCC(O)C3O)OC(=O)[C@]34CCC(C)(C)CC3C3=CCC5[C@@]6(C)C[C@H](O)[C@H](OC7OC(CO)C(O)C(O)C7OC7OCC(OC(=O)CC(C)(O)CC(=O)OC1C(O)C2O)C(O)C7O)[C@@](C)(CO)C6CC[C@@]5(C)[C@]3(C)CC4 (stereo partly drawn)	19 µM
NC(CSSCC(N)C(=O)O)C(=O)O (stereo not drawn)	> 100 µM

Provide the reported TGI of each entry below, same order.
1. CCCCCCCCCCCCCC[n+]1ccc(C)cc1
2. N#Cc1cccc(C=NC23CC4CC(CC(C4)C2)C3)c1

1: 3.88 µM; 2: > 100 µM

* * *

So I've got a bunch of compounds here, and I need their TGI values.
- Tested on: SW-620 colon
- Assay name: NCI tumour cell line growth inhibition, 48 h

Recorded results for 4 compounds are shown here.
CN(CCCCCl)P(=O)(OCc1ccc([N+](=O)[O-])o1)OCC1OC(n2cnc([N+](=O)[O-])c2N)C(O)C1O (stereo not given)	> 100 µM
CC(=O)NC1=NC(=O)/C(=C/c2ccc(/C=C3/C(=O)N=C(NC(C)=O)N3C)cc2)N1C	> 100 µM
COc1cc(Cl)cc(-c2nn(-c3cccc(NC(=O)Nc4ccc(Cl)c(Cl)c4)c3)cc2-c2ccncc2)c1	> 100 µM
COc1cc(C)c2sc3ccccc3c(=O)c2c1NCCN(C)C	14.5 µM

Switching to the query record.
Recorded result, CC(=O)O[C@H]1CC[C@@]2(C)C(=C/C(=N/OCCN3CCCC3)[C@H]3[C@@H]4CC[C@H](OC(C)=O)[C@@]4(C)CC[C@@H]32)C1 , TGI: 59.8 µM

* * *

So I've got a bunch of molecules here, and I need their TGI values.
- Tested on: HS 578T breast
- Assay name: NCI tumour cell line growth inhibition, 48 h
One number for each entry, in µM.

Recorded results for 2 molecules are shown here.
CC(C)(C)N/N=C(\C(=O)NC1=C(Cl)C(=O)c2ccccc2C1=O)C1C=CCS1(=O)=O (centres undefined)	64.8
CCSC[C@@H]1C[C@](O)(c2ccc(F)cc2)[C@@H](c2ccc(F)cc2)O1	37

Recorded result, COC1(CC[C@@H](C)COC2OC(CO)C(O)C(O)C2O)O[C@H]2C[C@H]3[C@@H]4CC=C5C[C@@H](OC6OC(CO)C(O)C(OC7OC(CO)C(O)C(O)C7O)C6OC6OC(C)C(O)C(O)C6O)CC[C@]5(C)[C@H]4CC[C@]3(C)[C@H]2[C@@H]1C (some centres undefined) , TGI: 22.2

// provenance: PubChem BioAssay (NCI)
